- Tested on: human lung adenocarcinoma cell line (A549)
- ASSAY OVERVIEW: In vitro cytotoxicity assay, cancer cell growth inhibition, A549 cell
- CONDITION PARAMETERS: read-out: In vitro cytotoxicity assay: GI50 (μM) A549 cell; A549 cell
List of GI50 values.
READOUT TYPE: GI50 (µM)

- O=C1C=CC(O)(c2cc(=O)c3c(ccc4cc(O)ccc43)o2)C=C1 [side chain No. 19]: 0.806
- CN(C)CCOc1ccc2c(ccc3oc(C4(O)C=CC(=O)C=C4)cc(=O)c32)c1 [side chain No. 14]: 0.754
- COc1ccc2c(ccc3oc(C4(O)C=CC(=O)C=C4)cc(=O)c32)c1 [side chain No. 8]: 0.811
- COCOc1ccc2c(ccc3oc(C4(O)C=CC(=O)C=C4)cc(=O)c32)c1 [side chain No. 10]: 0.819
